# target-under-test: T1, rat collagen, acid soluble, type I, rat tail (Upstate 08-115) (rat, UniProt P02454 152-1207; P02466 86-1125)
# T1 construct: tissue extract, gelled and dried in wells; also called dried rat collagen
# T1 sequence (P02454 152-1207, chain 1 of 2): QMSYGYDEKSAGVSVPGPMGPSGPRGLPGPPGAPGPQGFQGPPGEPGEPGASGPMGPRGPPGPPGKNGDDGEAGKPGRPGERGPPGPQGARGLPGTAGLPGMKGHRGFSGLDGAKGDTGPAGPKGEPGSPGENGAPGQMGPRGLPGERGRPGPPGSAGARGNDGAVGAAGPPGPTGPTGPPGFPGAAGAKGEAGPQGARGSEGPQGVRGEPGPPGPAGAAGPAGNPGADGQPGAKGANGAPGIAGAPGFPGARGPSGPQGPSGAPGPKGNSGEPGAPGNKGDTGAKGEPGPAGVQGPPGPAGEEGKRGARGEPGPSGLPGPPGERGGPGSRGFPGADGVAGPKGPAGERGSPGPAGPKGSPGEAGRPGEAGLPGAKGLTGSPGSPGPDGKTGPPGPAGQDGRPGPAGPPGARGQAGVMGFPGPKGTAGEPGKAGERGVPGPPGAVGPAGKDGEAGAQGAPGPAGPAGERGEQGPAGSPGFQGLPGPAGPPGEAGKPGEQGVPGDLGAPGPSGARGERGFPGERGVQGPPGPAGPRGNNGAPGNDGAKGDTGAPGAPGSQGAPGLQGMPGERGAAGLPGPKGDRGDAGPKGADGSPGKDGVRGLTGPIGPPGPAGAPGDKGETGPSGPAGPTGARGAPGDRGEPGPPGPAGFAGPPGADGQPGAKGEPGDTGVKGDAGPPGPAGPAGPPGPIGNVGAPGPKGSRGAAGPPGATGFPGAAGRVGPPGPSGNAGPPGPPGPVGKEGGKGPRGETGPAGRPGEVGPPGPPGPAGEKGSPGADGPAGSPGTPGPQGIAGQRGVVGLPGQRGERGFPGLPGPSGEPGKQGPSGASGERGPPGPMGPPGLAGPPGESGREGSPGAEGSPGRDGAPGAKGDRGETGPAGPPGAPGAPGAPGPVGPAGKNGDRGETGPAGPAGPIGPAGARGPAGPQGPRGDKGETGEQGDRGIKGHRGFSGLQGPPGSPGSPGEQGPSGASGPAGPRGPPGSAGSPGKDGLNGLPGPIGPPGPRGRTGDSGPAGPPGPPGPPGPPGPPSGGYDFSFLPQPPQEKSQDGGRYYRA
# T1 sequence (P02466 86-1125, chain 2 of 2): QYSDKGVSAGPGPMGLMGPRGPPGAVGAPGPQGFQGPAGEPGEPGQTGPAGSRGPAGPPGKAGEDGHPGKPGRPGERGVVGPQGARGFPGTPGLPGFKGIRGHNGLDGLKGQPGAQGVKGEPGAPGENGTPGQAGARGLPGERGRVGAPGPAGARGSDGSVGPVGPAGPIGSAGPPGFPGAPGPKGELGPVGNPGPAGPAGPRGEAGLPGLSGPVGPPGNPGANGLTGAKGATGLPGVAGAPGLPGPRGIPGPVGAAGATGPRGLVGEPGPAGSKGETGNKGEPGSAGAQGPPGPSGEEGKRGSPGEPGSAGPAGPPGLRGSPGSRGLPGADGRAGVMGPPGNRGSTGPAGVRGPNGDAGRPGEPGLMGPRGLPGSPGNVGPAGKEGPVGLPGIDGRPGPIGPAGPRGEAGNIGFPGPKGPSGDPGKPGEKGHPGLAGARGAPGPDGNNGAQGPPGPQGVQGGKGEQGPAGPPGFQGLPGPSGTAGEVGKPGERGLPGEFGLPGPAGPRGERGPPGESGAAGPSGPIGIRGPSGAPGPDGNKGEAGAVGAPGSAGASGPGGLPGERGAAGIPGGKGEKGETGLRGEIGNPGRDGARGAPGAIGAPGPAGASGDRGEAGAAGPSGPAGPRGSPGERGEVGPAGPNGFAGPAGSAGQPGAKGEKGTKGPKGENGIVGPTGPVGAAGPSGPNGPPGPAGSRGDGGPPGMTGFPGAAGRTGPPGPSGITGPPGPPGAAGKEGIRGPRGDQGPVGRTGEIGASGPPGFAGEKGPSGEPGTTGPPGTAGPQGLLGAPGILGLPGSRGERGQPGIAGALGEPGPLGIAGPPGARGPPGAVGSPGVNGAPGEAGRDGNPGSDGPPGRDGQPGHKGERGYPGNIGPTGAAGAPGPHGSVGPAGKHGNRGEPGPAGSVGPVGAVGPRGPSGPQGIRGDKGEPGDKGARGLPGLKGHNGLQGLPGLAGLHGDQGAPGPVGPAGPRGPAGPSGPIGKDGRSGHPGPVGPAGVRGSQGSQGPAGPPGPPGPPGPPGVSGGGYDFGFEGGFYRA
# measurement-notes: dried collagen assay
Bridge positions count the residues as written; N and C are the ends. Square brackets hold non-standard residues; d marks the D form. Primed or numbered codes have the meaning given here. Side chains are listed from the residue outwards. Ends that are not written are not given here. * marks the point of attachment. Bip = N[C@@H](Cc1ccc(-c2ccccc2)cc1)C(=O)O; Phe(4-NH2) = Nc1ccc(C[C@H](N)C(=O)O)cc1; Gd^T(3) = GdDTPA attached via thiourea; 1Nal = N[C@@H](Cc1cccc2ccccc12)C(=O)O; Gd^G = not defined here; Gd^T = not defined here; Gd^T″ = GdDTPA-thiourea; Cbz = O=C(OCc1ccccc1)*; Dap = NC[C@H](N)C(=O)O
Classes based on % bound: group 1 = under 40%, group 2 = from 40% up to 70%, group 3 = 70% and over

binder	group
{Gd^T″}-GK([Gly-Gd^T″])WHCYT[Dap](Gd^T″)FPHHYCVY[Bip] (disulfide 5-14) [Compound ID 1006]	group 3
{Gd^T″}-DWTCS[dY]DEYTWHCNYE (disulfide 4-13 (inferred); not fully specified (C-terminus)) [Compound ID 829]	group 1
{Gd^T″}-GK([Gly-Gd^T″])WHCTTYFPHH[Phe(4-NH2)]CLYG (disulfide 5-14 (inferred); not fully specified (C-terminus)) [Compound ID 972]	group 1
{Gd^G}-DWTCRGDEYTWHCNYE (disulfide 4-13 (inferred); not fully specified (C-terminus); reading uncertain) [Compound ID 822]	group 1
{Gd^T″}-GFK([Phe-Gly-Gd^T″])WHCTTYFPHHYCLYG (disulfide 6-15 (inferred); not fully specified (C-terminus)) [Compound ID 983]	group 2
{Gd^T″}-PPWHCTTLFPHH[dY]CLYG (disulfide 5-14 (inferred); not fully specified (C-terminus)) [Compound ID 912]	group 1
{Gd^T(3)}-GQWHCTTLFPHH[1Nal]CLYG (disulfide 5-14; not fully specified (C-terminus)) [Compound ID 913]	group 2
{Gd^T″}-GQWHCTTRFPHHYCLYG[dK](Gd^T″) (disulfide 5-14 (inferred); not fully specified (C-terminus)) [Compound ID 808]	group 1
{Gd^T″}-GK([Gly-Gd^T″])WHCYTYFPYHYCVYG (disulfide 5-14 (inferred)) [Compound ID 963]	group 3
{Gd^T(3)}-GK([Gly-Gd^T(3)])WHCTTYFPHHYCLY[Bip]K(Gd^T(3)) (disulfide 5-14; not fully specified (C-terminus)) [Compound ID 977]	group 2
Cbz-GQWHCTTRFPHHYCLYGK (disulfide 5-14 (inferred); not fully specified (residue 18)) [Compound ID 925]	group 2
{Gd^T″}-GK([Gly-Gd^T″])WHCYTK(Gd^T″)FPHHYCVYYY (disulfide 5-14 (inferred)) [Compound ID 1010]	group 3
{Gd^T″}-GK([Gly-Gd^T″])WHCTTK(Gd^T″)FPHHYCLYY (disulfide 5-14 (inferred); not fully specified (C-terminus)) [Compound ID 980]	group 3
{Gd^T″}-GQWHCTTRFPHHYCFYG (disulfide 5-14 (inferred)) [Compound ID 931]	group 3
{Gd^T(3)}-K(Gd^T(3))K(Gd^T(3))WHCTTK(Gd^T(3))FPHHYCLY[Bip] (disulfide 5-14 (inferred)) [Compound ID 997]	group 2
{Gd^T}-GQWHCTTAFPHHYCLYG (disulfide 5-14 (inferred); not fully specified (C-terminus); reading uncertain) [Compound ID 853]	group 2
